B1: library; numbered along this chain (parent)
chain: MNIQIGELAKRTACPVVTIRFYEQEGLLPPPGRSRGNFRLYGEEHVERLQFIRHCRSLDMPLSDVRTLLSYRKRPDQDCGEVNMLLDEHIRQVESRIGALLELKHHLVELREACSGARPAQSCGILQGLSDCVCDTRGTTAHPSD

# Variants of: B1
# method notes: sfGFP reporter fluorescence (15 h) (µM FITC); higher = stronger transcriptional activation
# test conditions: library round: Round 1; ligand: 1 µM Pb
readout: sfGFP reporter fluorescence
In your answer, state the number alone without any accompanying words.

Query (variant): D87E D131C ; field requested: sfGFP reporter fluorescence
0.0742

Query (variant): L107I P143R ; field requested: sfGFP reporter fluorescence
0.0775

Query (variant): P15A P61L ; field requested: sfGFP reporter fluorescence
0.0722

Query (variant): D64A I97M ; field requested: sfGFP reporter fluorescence
0.0781

Query (variant): P61N I90L K104G ; field requested: sfGFP reporter fluorescence
0.0616

Query (variant): M60L P61N D64K K104T ; field requested: sfGFP reporter fluorescence
0.446

Query (variant): D64K E112F ; field requested: sfGFP reporter fluorescence
0.145

Query (variant): R111L G128P ; field requested: sfGFP reporter fluorescence
0.0568

Query (variant): unchanged ; field requested: sfGFP reporter fluorescence
0.0729

Query (variant): M60L D64T L107C ; field requested: sfGFP reporter fluorescence
0.754

Query (variant): V16N L58A ; field requested: sfGFP reporter fluorescence
0.0608

Query (variant): G128H P143A ; field requested: sfGFP reporter fluorescence
0.0728

Query (variant): D64I R111L ; field requested: sfGFP reporter fluorescence
0.254

Query (variant): G32S C55M ; field requested: sfGFP reporter fluorescence
0.0712

Query (variant): N83T E109L P143R ; field requested: sfGFP reporter fluorescence
0.0812

Query (variant): P61A L107C G128M ; field requested: sfGFP reporter fluorescence
1.47

Query (variant): G128I D135A ; field requested: sfGFP reporter fluorescence
0.12

Query (variant): P61N R111L ; field requested: sfGFP reporter fluorescence
0.0861

Query (variant): E109L D135P ; field requested: sfGFP reporter fluorescence
0.102

Query (variant): K104R C134I ; field requested: sfGFP reporter fluorescence
0.152

Query (variant): D131Y D135P ; field requested: sfGFP reporter fluorescence
0.0826

Query (variant): D131C P143A ; field requested: sfGFP reporter fluorescence
0.0696

Query (variant): N83T D131A ; field requested: sfGFP reporter fluorescence
0.0917

Query (variant): E109D D135R ; field requested: sfGFP reporter fluorescence
0.0733

Query (variant): L129M P143T ; field requested: sfGFP reporter fluorescence
0.0636

Query (variant): N83T R111A ; field requested: sfGFP reporter fluorescence
0.0834

Query (variant): H105E ; field requested: sfGFP reporter fluorescence
0.0683

Query (variant): N83T I97C ; field requested: sfGFP reporter fluorescence
0.063

Query (variant): N83I K104V ; field requested: sfGFP reporter fluorescence
0.356

Query (variant): G128I D131S ; field requested: sfGFP reporter fluorescence
0.253

Query (variant): D131A D135P P143W ; field requested: sfGFP reporter fluorescence
0.122

Query (variant): D135A P143M ; field requested: sfGFP reporter fluorescence
0.0798

Query (variant): N83T L107C G128I ; field requested: sfGFP reporter fluorescence
0.702

Query (variant): P30A K104V ; field requested: sfGFP reporter fluorescence
0.115

Query (variant): N83T G128I ; field requested: sfGFP reporter fluorescence
0.133

Query (variant): N83T L85A ; field requested: sfGFP reporter fluorescence
0.0596

Query (variant): G128A L129M ; field requested: sfGFP reporter fluorescence
0.0701

Query (variant): D131T D135A ; field requested: sfGFP reporter fluorescence
0.0808

Query (variant): G128L D135A ; field requested: sfGFP reporter fluorescence
0.155

Query (variant): L28V C134T ; field requested: sfGFP reporter fluorescence
0.0943

Query (variant): D64K R111A ; field requested: sfGFP reporter fluorescence
0.382

Query (variant): E112I D131C ; field requested: sfGFP reporter fluorescence
0.0652

Query (variant): P61D D64K L107C G128M ; field requested: sfGFP reporter fluorescence
2.06

Query (variant): N83I I97H ; field requested: sfGFP reporter fluorescence
0.0654

Query (variant): D64K N83T D131S ; field requested: sfGFP reporter fluorescence
0.29

Query (variant): N83Y K104V ; field requested: sfGFP reporter fluorescence
0.119

Query (variant): K104V V108K ; field requested: sfGFP reporter fluorescence
0.316

Query (variant): P61N V108M R111C ; field requested: sfGFP reporter fluorescence
0.0925

Query (variant): E94D K104V ; field requested: sfGFP reporter fluorescence
0.101

Query (variant): D64K D131L ; field requested: sfGFP reporter fluorescence
0.513

Query (variant): N83Y R111A ; field requested: sfGFP reporter fluorescence
0.0721

Query (variant): N83T D135A ; field requested: sfGFP reporter fluorescence
0.0768

Query (variant): P61N E94V ; field requested: sfGFP reporter fluorescence
0.145

Query (variant): N83S R111C ; field requested: sfGFP reporter fluorescence
0.0672

Query (variant): G128I C134E ; field requested: sfGFP reporter fluorescence
0.139

Query (variant): N83V C134S ; field requested: sfGFP reporter fluorescence
0.0667

Query (variant): P61N D64T E112I ; field requested: sfGFP reporter fluorescence
0.153

Query (variant): D64K N83F ; field requested: sfGFP reporter fluorescence
0.198

Query (variant): N83T I97N ; field requested: sfGFP reporter fluorescence
0.064

Query (variant): L107C G128I D135A P143K ; field requested: sfGFP reporter fluorescence
1.52

Query (variant): R20W R111L ; field requested: sfGFP reporter fluorescence
0.0663

Query (variant): P61D D64K E112H ; field requested: sfGFP reporter fluorescence
0.345

Query (variant): N83T E112F ; field requested: sfGFP reporter fluorescence
0.0667

Query (variant): E109H D131C ; field requested: sfGFP reporter fluorescence
0.0764

Query (variant): R96G ; field requested: sfGFP reporter fluorescence
0.076

Query (variant): V46F K104V ; field requested: sfGFP reporter fluorescence
0.103

Query (variant): I97A K104V ; field requested: sfGFP reporter fluorescence
0.303

Query (variant): D135R P143A ; field requested: sfGFP reporter fluorescence
0.0707

Query (variant): P61D D64K D135A ; field requested: sfGFP reporter fluorescence
0.321

Query (variant): V16C V46C ; field requested: sfGFP reporter fluorescence
0.066

Query (variant): P61N C134V ; field requested: sfGFP reporter fluorescence
0.189

Query (variant): C55L M60L P61N D64K ; field requested: sfGFP reporter fluorescence
0.0878

Query (variant): N83T D135P ; field requested: sfGFP reporter fluorescence
0.0771

Query (variant): E112I D135A ; field requested: sfGFP reporter fluorescence
0.0644

Query (variant): M84A G124A ; field requested: sfGFP reporter fluorescence
0.064

Query (variant): R111A D131N ; field requested: sfGFP reporter fluorescence
0.117

Query (variant): M60L D64K P143A ; field requested: sfGFP reporter fluorescence
0.945

Query (variant): N83T L110W ; field requested: sfGFP reporter fluorescence
0.0593

Query (variant): I125L D131A D135A ; field requested: sfGFP reporter fluorescence
0.0661

Query (variant): N83R D135A ; field requested: sfGFP reporter fluorescence
0.0787

Query (variant): V108E E109H ; field requested: sfGFP reporter fluorescence
0.0687

Query (variant): L110I R111A ; field requested: sfGFP reporter fluorescence
0.0635

Query (variant): R96A K104V ; field requested: sfGFP reporter fluorescence
0.0754

Query (variant): D131M D135A ; field requested: sfGFP reporter fluorescence
0.0869

Query (variant): L107E G128I ; field requested: sfGFP reporter fluorescence
0.0633

Query (variant): E25V R111M ; field requested: sfGFP reporter fluorescence
0.0654

Query (variant): N83T L107Y ; field requested: sfGFP reporter fluorescence
0.0739

Query (variant): D64K D131A ; field requested: sfGFP reporter fluorescence
0.37

Query (variant): P61N D64K K104V L107C G128I ; field requested: sfGFP reporter fluorescence
0.961

Query (variant): N83T I97S K104G ; field requested: sfGFP reporter fluorescence
0.076

Query (variant): N83T R96A ; field requested: sfGFP reporter fluorescence
0.0756

Reference for the values: the supplement of paper PMC12783771
